Ref: PubChem BioAssay AID1159580

Listed here are compounds together with their documented normalized growth.
- Measurement notes: chemical genetic growth profiling, strain panel (AID 1159580);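 further: tested at 20 µM; growth read once vehicle control cultures reached saturation at 30 °C; 1 = growth at the plate median or of vehicle wells; lower values mean less growth of the strain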
- Particulars: S. cerevisiae deletion strains, growth OD, locus YPL240C, strain hsp82, hits give low values
About 2,000 (36%) of roughly 5,500 compounds were called active. Not shown: some 18% with an inconclusive outcome. This is one part of the list.

{"columns": ["Compound", "normalized growth"],
 "data": [
  ["COc1c(O)cc2c(-c3ccccc3)cc(=O)oc2c1OC", 1],
  ["S=c1ccss1", 0.986],
  ["CCCCCCCCCc1ccc(O)cc1", 0.0552],
  ["O=c1c(-c2ccc(O)cc2)coc2cc(O)cc(O)c12", 0.992],
  ["CN1CCN2c3ccccc3Cc3ccccc3C2C1 (configuration not stated)", 1.01],
  ["CCCCCCc1ccc(O)cc1O", 0.924],
  ["CC(=O)[C@H]1CCC2C3CC=C4C[C@@H](O)CC[C@]4(C)C3CC[C@@]21C (some centres not stated)", 1],
  ["NS(=O)(=O)c1cc2c(cc1C(F)(F)F)NCNS2(=O)=O", 0.994],
  ["O=c1c(-c2ccccc2)coc2cc(O)cc(O)c12", 0.996],
  ["Cc1cc2cc3c(C)cc(=O)oc3c(C)c2o1", 0.994],
  ["CCCCC1C(=O)N(c2ccccc2)N(c2ccccc2)C1=O", 0.994],
  ["CC1(C)O[C@@H]2CC3C4CCC5=CC(=O)C=C[C@]5(C)[C@@]4(F)[C@@H](O)C[C@]3(C)[C@]2(C(=O)CO)O1 (some centres not stated)", 1]
]}
